# run_description: Drug uptake in brain of mouse xenografted with human NCI-H2122 cells at 50 mg/kg, ip after 3 hrs by LC-MS/MS analysis
# Assay type: ADME, organism-based
# test_conditions: read-out: Drug uptake
For each record, write down the corresponding concentration at 3 h.
Answers are plain numbers, in ng/g.

See these solved cases before continuing.
Cc1nn(C)c2c1C(c1ccc(C(F)(F)F)cc1)C(C#N)=C(N)O2 (centres undefined) | 1390
COc1ccc(OC)c(C2C(C#N)=C(N)Oc3[nH]nc(-c4ccc5ccccc5c4)c32)c1 (centres undefined) | 570
Cn1nc(-c2ccccc2)c2c1OC(N)=C(C#N)C2c1ccc(-n2ccnc2)cc1 (centres undefined) | 170

In the following, a different compound is considered.
Task: Item CCCCC(=O)C1c2ccccc2NC2=C(C(=O)CCC2)C1c1ccccc1Cl (centres undefined) has what recorded concentration at 3 h?
Output: 210

###

For each record, write down the corresponding concentration at 3 h.
# run_description: Drug uptake in heart of mouse xenografted with human NCI-H2122 cells at 50 mg/kg, ip after 3 hrs by LC-MS/MS analysis
# Assay type: ADME, organism-based
# test_conditions: read-out: Drug uptake
One number for each entry, in ng/g.

See these solved cases before continuing.
CCCCC(=O)C1c2ccccc2NC2=C(C(=O)CCC2)C1c1ccccc1Cl (centres undefined) | 3540
Cn1nc(-c2ccccc2)c2c1OC(N)=C(C#N)C2c1ccc(-n2ccnc2)cc1 (centres undefined) | 930
Cc1nn(C)c2c1C(c1ccc(C(F)(F)F)cc1)C(C#N)=C(N)O2 (centres undefined) | 2080

In the following, a different compound is considered.
Task: Item COc1ccc(OC)c(C2C(C#N)=C(N)Oc3[nH]nc(-c4ccc5ccccc5c4)c32)c1 (centres undefined) has what recorded concentration at 3 h?
Output: 13700

###

# run_description: Drug uptake in lungs of mouse xenografted with human NCI-H2122 cells at 50 mg/kg, ip after 3 hrs by LC-MS/MS analysis
# Format: ADME, organism-based
# test_conditions: lung, read-out: Drug uptake
property_label: concentration at 3 h (ng/g)
Give bare numbers, in ng/g.

See these solved cases before continuing.
COc1ccc(OC)c(C2C(C#N)=C(N)Oc3[nH]nc(-c4ccc5ccccc5c4)c32)c1 (centres undefined) | 21600
CCCCC(=O)C1c2ccccc2NC2=C(C(=O)CCC2)C1c1ccccc1Cl (centres undefined) | 3180
Cc1nn(C)c2c1C(c1ccc(C(F)(F)F)cc1)C(C#N)=C(N)O2 (centres undefined) | 1870

In the following, a different molecule is considered.
Task: Item Cn1nc(-c2ccccc2)c2c1OC(N)=C(C#N)C2c1ccc(-n2ccnc2)cc1 (centres undefined) has what recorded concentration at 3 h?
Output: 1090

###

# run_description: Drug uptake in tumor of mouse xenografted with human NCI-H2122 cells at 50 mg/kg, ip after 3 hrs by LC-MS/MS analysis
# Type: ADME, organism-based, Neoplasm
# test_conditions: read-out: Drug uptake
property_label: concentration at 3 h (ng/g)
Answers are plain numbers, in ng/g.

See these solved cases before continuing.
CCCCC(=O)C1c2ccccc2NC2=C(C(=O)CCC2)C1c1ccccc1Cl (centres undefined) | 4170
COc1ccc(OC)c(C2C(C#N)=C(N)Oc3[nH]nc(-c4ccc5ccccc5c4)c32)c1 (centres undefined) | 5830
Cc1nn(C)c2c1C(c1ccc(C(F)(F)F)cc1)C(C#N)=C(N)O2 (centres undefined) | 1220

Task: Item Cn1nc(-c2ccccc2)c2c1OC(N)=C(C#N)C2c1ccc(-n2ccnc2)cc1 (centres undefined) has what recorded concentration at 3 h?
Output: 380
